System: Salmonella typhimurium strain TA 100
Experiment: Ames bio-assay, antimutagenic activity against 2-nitrofluorene (2-NF)
Type: cell-based
Protocol: The four major constituents of the benzene extract from Aristolochia taliscana roots—eupomatenoid-7 (7), eupomatenoid-1 (8), eupomatenoid-8 (17), Licarin-A (16)—were tested for their mutagenic and antimutagenic properties using the Ames bio-assay (Maron, D. M. and Ames, B. N., Mutation reasearch, 1983, 113, 173). The test compounds have the following structural formula: [drawing 11] […]
property.measured: antimutagenic effect against 2-nitrofluorene (in words)

# line.notation, experimental.result
rows = [
    ("CC=Cc1cc(OC)c2oc(-c3ccc4c(c3)OCO4)c(C)c2c1", "not against 2-NF"),
    ("C/C=C/c1cc(OC)c2c(c1)[C@H](C)[C@@H](c1ccc(O)c(OC)c1)O2", "not against 2-NF"),
]

====

test system: Saprolegnia asterophora; assay: Antifungal plate diffusion method; format: cell-based; details: 150 microgramme aliquot spotted onto plate
property.measured: diameter of inhibition of fungal growth, Saprolegnia asterophora

# compound, experimental.result
rows = [
    ("C=C1/C=C/[C@@H](C(C)C)CC/C(C)=C/CC1 [E-Germacrene D (38), ent-Germacrene-D]", "−"),
    ("COc1ccc2cc3c4c(cc(OC)c(OC)c4c2c1)C(=O)N3 [Aristolactam B (3), Aristolactam B III]", "−"),
    ("COc1cc(C=O)ccc1O [Vanillin (31), Vanillin]", "−"),
    ("C/C=C/c1cc(OC)c2oc(-c3ccc(O)c(OC)c3)c(C)c2c1 [Eupomatenoid-7 (7), Eupomatenoid-7]", "−"),
    ("C/C=C/c1cc(OC)c2c(c1)[C@H](C)[C@@H](c1ccc(O)c(OC)c1)O2 [Licarin-A (16), Licarin-A]", "−"),
    ("CC=Cc1cc(OC)c2oc(-c3ccc4c(c3)OCO4)c(C)c2c1 [Eupomatenoid-1 (8), Eupomatenoid-1]", "−"),
    ("COc1cc(/C=C/CO)ccc1O [Coniferyl alcohol (29), Coniferyl alcohol]", "−"),
    ("CC=Cc1cc(OC)c2c(c1)C(C)C(c1ccc3c(c1)OCO3)O2 (single isomer, unassigned; (-)) [Eupomatenoid-8 (17)]", "−"),
]

====

Reported melting point values for the following compounds.

# compound, melting point
data = [
    ("COc1cc(C2(C)COc3c(OC)cc(C=O)cc32)ccc1O (stereo not drawn)", "162 to 165 °C"),
    ("C/C=C/c1cc(OC)c2oc(-c3ccc(O)c(OC)c3)c(CO)c2c1", "175 to 179 °C"),
    ("C=CC(O)c1cc(OC)c2oc(-c3ccc(O)c(OC)c3)c(C)c2c1 (racemic)", "164 to 167 °C"),
]

The measured values listed here are drawn from patent US20020099086A1.
